Hey, just so you know, these numbers are from patent US20260078196A1.

- Assay system: T1, human MUC16 on cells (human, UniProt Q8WXI7 1-14507)
- T1 construct: whole, on cells; also called huMUC16; MUC16 on OVCAR3 and SNU216 cells
- Assay details: flow cytometry (MFI GeoMean) on SNU216 cells, nM is the unit of the x axis Log10[Ab] (nM)
Property measured: EC50 (nM)
Answer with a number only, understood to be in nM.

Task: Can you share its EC50? I mean this binder: B218 (antibody, V domains shown, Anti-MUC16 mAb; also called MUC16-B218) VH: EVQLLESGAEVKKPGSSVKVSCKASGGTFSSYAISWVRQAPGQGLEWMGGIIPIFGTANYAQKFQGRVTITADESTSTAYMELSSLRSEDTAVYYCARGGPHYDFWSGYTPGQHGGAFDIWGQGTMVTVSS VL: NIQMTQSPSTLSASLGDRVSITCRASQSISGWLAWYQQKPGKAPKLLIYRTSYLESGVPSRFSAGGSGTEFTLTISSLQPDDFATYYCQHYDTFSRAFGQGTKVDIK
Output: 0.76
